Biological target: UniProt:A0A8I3NYE0
Sequence (A0A8I3NYE0 1-1135): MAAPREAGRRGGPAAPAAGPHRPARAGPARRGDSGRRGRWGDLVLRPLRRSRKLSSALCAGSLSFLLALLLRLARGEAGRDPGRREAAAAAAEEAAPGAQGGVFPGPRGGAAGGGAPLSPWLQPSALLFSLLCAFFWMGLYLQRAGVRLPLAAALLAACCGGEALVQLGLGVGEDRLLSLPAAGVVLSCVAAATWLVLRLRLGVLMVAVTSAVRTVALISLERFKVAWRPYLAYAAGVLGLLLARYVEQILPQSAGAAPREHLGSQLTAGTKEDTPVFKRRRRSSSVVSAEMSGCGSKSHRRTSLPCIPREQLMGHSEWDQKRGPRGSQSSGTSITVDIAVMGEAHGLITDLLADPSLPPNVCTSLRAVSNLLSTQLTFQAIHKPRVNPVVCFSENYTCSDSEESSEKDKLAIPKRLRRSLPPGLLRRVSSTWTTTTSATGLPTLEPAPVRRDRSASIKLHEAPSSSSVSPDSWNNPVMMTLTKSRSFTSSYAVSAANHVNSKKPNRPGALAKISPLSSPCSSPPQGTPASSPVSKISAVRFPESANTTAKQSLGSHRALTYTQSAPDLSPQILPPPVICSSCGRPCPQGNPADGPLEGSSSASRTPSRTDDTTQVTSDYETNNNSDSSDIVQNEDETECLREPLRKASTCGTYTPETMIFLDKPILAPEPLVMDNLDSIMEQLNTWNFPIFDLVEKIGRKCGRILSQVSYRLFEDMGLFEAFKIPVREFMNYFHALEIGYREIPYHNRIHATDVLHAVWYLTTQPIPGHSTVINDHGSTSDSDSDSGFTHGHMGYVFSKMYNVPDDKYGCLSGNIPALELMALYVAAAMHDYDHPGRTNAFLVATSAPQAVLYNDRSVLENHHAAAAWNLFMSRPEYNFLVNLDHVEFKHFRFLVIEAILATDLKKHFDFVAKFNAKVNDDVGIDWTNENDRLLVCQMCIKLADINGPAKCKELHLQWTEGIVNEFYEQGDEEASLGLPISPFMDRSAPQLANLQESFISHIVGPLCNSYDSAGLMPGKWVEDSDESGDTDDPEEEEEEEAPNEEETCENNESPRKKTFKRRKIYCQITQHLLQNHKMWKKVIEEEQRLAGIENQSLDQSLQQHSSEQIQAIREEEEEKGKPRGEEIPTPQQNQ
Quantity: IC50

IN: Looking for the measured IC50 of O=C1Cc2cc3cc(OCCCC(=O)N4CCN(CC5CCCCC5)CC4)ccc3nc2N1 , can you help?
OUT: 27 nM

IN: Looking for the measured IC50 of Cl.O=C1Cc2cc3cc(OCCCCC(=O)N4CCN(CC5CCCCC5)CC4)ccc3nc2N1 [Compound 15, monohydrochloride] , can you help?
OUT: 1.8 nM

More entries:
IN: Looking for the measured IC50 of CN(C(=O)CCCOc1ccc2nc3c(cc2c1)CC(=O)N3)C1CCCCC1 [Compound 17, hemihydrate] , can you help?
OUT: 7.6 nM

IN: Looking for the measured IC50 of O=C1Cc2cc3cc(OCCCCC(=O)NC4CCN(Cc5ccccc5)CC4)ccc3nc2N1 , can you help?
OUT: 58 nM
